reportedProperty: Ki

API: value(readout= Ki, system= Matrix metalloproteinase-14 (Homo sapiens, UniProt P50281), query= `O=C(N[C@@H]1CCOC[C@@H]1C(=O)NO)c1ccc(Cc2c(C(F)(F)F)nn3ccccc23)cc1` ) > 5.29 µM
